# Species on record: Rattus norvegicus
# test-method-notes: Inhibition of 5-HT reuptake from whole rat brain minus cerebellum using [3H]5-HT
pKi: −log10 of the molar value.
Outcome label depends on pKi relative to 5: at/above gives y, below gives n.

Worked cases, answers included:
CN1[C@@H]2CC[C@H]1C[C@@H](OC(c1ccccc1)c1ccccc1)C2 : n
CN1[C@@H]2CC[C@H]1C[C@@H](CCNC(c1ccc(F)cc1)c1ccc(F)cc1)C2 : y
c1ccc(CCCN2CCN(CCOC(c3ccccc3)c3ccccc3)CC2)cc1 : y
Fc1ccc(C(OCC[C@H]2C[C@H]3CC[C@@H](C2)N3CCCc2ccccc2)c2ccc(F)cc2)cc1 : y
CN1C2CCC1CC(=CC(=O)NC(c1ccc(F)cc1)c1ccc(F)cc1)C2 : n

Say whether CN1C2CCC1CC(CC(=O)NC(c1ccc(F)cc1)c1ccc(F)cc1)C2 (centres undefined) shows pKi of 5 or more. n

Please check the record CN1C2CCC1CC(CCNC(c1ccccc1)c1ccccc1)C2 (centres undefined) and state if its pKi is at or above 5. n

State whether the measured pKi reaches 5, counting equality as reaching it, for CN1[C@@H]2CC[C@H]1C[C@@H](CC(=O)NC(c1ccccc1)c1ccccc1)C2 n

====

Parameter Ki, tested on UniProt P31652, listed per item.
Please give a number only; it is taken to be in µM.

Here are 3 molecules together with their reported answers.
CN1C2CCC1CC(=CC(=O)NC(c1ccccc1)c1ccccc1)C2 : 78
Fc1ccc(C(OCC[C@H]2C[C@H]3CC[C@@H](C2)N3CCCc2ccccc2)c2ccc(F)cc2)cc1 : 0.079
CN1C2CCC1CC(=CCOC(c1ccccc1)c1ccccc1)C2 : 8.3

Turning now to a further molecule:
Identify the measured Ki of CN1[C@@H]2CC[C@H]1C[C@@H](CCOC(c1ccccc1)c1ccccc1)C2 for UniProt P31652. 15

====

# Organism: Rattus norvegicus
# test-method-notes: Inhibition of Dopamine reuptake from rat caudate using [3H]DA
# Type: functional
endpoint-name: Ki (nM)
Your answer should be a plain number; it is taken to be in nM.

CN1C2CCC1CC(=CCOC(c1ccccc1)c1ccccc1)C2 : 190

Would you mind telling me what Ki value was observed for CN1[C@@H]2CC[C@H]1C[C@@H](CCNC(c1ccc(F)cc1)c1ccc(F)cc1)C2 ? 160

Tell me the measured Ki of CN1C2CCC1CC(=CC(=O)NC(c1ccc(F)cc1)c1ccc(F)cc1)C2 , please. 240

Give the measured Ki of CN1C2CCC1CC(CCOC(c1ccc(F)cc1)c1ccc(F)cc1)C2 (stereo not given) . 80

I'd like to know its Ki. The compound in question is CN1C2CCC1CC(CC(=O)NC(c1ccc(F)cc1)c1ccc(F)cc1)C2 (stereo not given) 1800

====

# Organism: Rattus norvegicus
# test-method-notes: Inhibition of 5-HT reuptake from whole rat brain minus cerebellum using [3H]5-HT
pKi: −log10 of the molar value.
Assign Condition met whenever pKi does not fall below 5; assign Condition not met whenever it does.

Recorded results for 3 compounds are shown here.
CN1C2CCC1CC(=CC(=O)NC(c1ccccc1)c1ccccc1)C2 : Condition not met
c1ccc(CCCN2[C@@H]3CC[C@H]2C[C@@H](CCOC(c2ccccc2)c2ccccc2)C3)cc1 : Condition met
Fc1ccc(C(OCCN2CCN(CCCc3ccccc3)CC2)c2ccc(F)cc2)cc1 : Condition met

Now for a further compound.
Check the entry CN1C2CCC1CC(=CCOC(c1ccc(F)cc1)c1ccc(F)cc1)C2 : does pKi equal or exceed 5? Condition met

====

// endpoint pKi / system Sodium-dependent dopamine transporter (Rattus norvegicus, UniProt P23977)
// pKi: -log10(molar conc.)

See these solved cases before continuing.
CN1[C@@H]2CC[C@H]1C[C@@H](CC(=O)NC(c1ccccc1)c1ccccc1)C2 : 4.52
CN1C2CCC1CC(=CC(=O)NC(c1ccccc1)c1ccccc1)C2 : 5.64
CN1C2CCC1CC(CCNC(c1ccccc1)c1ccccc1)C2 (stereo not drawn) : 5.42
Fc1ccc(C(OCC[C@H]2C[C@H]3CC[C@@H](C2)N3CCCc2ccccc2)c2ccc(F)cc2)cc1 : 4.72
c1ccc(CCCN2[C@@H]3CC[C@H]2C[C@@H](CCOC(c2ccccc2)c2ccccc2)C3)cc1 : 4.55

API: value(readout=pKi, system=Sodium-dependent dopamine transporter (Rattus norvegicus, UniProt P23977)) for record CN1C2CCC1CC(=CCOC(c1ccc(F)cc1)c1ccc(F)cc1)C2 4.72

Find the measured pKi: item CN1C2CCC1CC(CCOC(c1ccc(F)cc1)c1ccc(F)cc1)C2 (stereo not drawn) , target or system Sodium-dependent dopamine transporter (Rattus norvegicus, UniProt P23977). 4.28

Could you share what pKi was measured for CN1C2CCC1CC(CC(=O)NC(c1ccc(F)cc1)c1ccc(F)cc1)C2 (stereo not drawn) , tested on Sodium-dependent dopamine transporter (Rattus norvegicus, UniProt P23977)? 5.47

====

The reader will find reported Ratio values listed item by item below.
# tested-on: Monoamine transporters; serotonin & dopamine (Rattus norvegicus) (UniProt P31652+P23977)
# Sequence (P23977 whole entry, looked up): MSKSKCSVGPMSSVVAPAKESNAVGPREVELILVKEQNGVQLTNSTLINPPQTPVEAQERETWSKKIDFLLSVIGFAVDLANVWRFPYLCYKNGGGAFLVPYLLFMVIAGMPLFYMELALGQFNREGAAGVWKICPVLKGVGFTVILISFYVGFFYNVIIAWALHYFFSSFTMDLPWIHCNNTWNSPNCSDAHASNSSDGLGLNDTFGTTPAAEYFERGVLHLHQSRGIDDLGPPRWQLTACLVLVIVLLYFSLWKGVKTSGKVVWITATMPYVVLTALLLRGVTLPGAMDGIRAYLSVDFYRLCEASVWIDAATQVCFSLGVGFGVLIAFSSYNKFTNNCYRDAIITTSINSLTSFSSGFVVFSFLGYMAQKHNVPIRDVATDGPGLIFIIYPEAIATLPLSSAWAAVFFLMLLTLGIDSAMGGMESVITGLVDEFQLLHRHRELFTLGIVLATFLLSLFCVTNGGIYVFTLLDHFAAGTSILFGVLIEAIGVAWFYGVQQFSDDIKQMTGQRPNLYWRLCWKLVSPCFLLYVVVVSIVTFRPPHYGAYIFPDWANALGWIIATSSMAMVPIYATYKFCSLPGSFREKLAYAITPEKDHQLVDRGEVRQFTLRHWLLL
# Sequence (P31652 whole entry, looked up): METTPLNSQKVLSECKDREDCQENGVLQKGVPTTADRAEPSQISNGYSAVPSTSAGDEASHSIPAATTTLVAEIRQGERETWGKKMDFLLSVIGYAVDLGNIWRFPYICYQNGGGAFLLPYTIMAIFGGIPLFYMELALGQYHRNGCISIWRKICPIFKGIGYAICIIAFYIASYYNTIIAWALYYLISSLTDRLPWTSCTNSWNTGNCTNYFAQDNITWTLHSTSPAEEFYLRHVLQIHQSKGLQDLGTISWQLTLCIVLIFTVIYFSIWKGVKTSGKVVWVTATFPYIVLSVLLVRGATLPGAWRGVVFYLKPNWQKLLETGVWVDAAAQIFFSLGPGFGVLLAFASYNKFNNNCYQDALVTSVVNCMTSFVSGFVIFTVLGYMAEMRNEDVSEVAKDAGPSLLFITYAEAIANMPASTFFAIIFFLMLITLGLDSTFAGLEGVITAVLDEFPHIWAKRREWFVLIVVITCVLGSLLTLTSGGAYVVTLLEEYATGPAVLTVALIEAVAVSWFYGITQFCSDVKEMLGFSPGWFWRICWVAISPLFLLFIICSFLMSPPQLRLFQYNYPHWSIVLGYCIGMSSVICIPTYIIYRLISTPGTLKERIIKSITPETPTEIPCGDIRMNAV
# test-method-notes: Ratio of binding affinity against Dopamine to that of serotonin transporter
# Assay type: protein assay
Write the value as a bare number.

Take a look at these entries with their results.
CN1[C@@H]2CC[C@H]1C[C@@H](CCOC(c1ccccc1)c1ccccc1)C2 : 54
c1ccc(CCCN2[C@@H]3CC[C@H]2C[C@@H](CCOC(c2ccccc2)c2ccccc2)C3)cc1 : 6
CN1C2CCC1CC(=CC(=O)NC(c1ccc(F)cc1)c1ccc(F)cc1)C2 : 38
CN1C2CCC1CC(CC(=O)NC(c1ccc(F)cc1)c1ccc(F)cc1)C2 (configuration not stated) : 20
CN1[C@@H]2CC[C@H]1C[C@@H](CCNC(c1ccc(F)cc1)c1ccc(F)cc1)C2 : 111
CN1C2CCC1CC(=CCOC(c1ccc(F)cc1)c1ccc(F)cc1)C2 : 189
CN1C2CCC1CC(=CCOC(c1ccccc1)c1ccccc1)C2 : 64
CN1[C@@H]2CC[C@H]1C[C@@H](CC(=O)NC(c1ccccc1)c1ccccc1)C2 : 4

For the molecule CN1C2CCC1CC(=CC(=O)NC(c1ccccc1)c1ccccc1)C2 , what Ratio is on record? 34

What measured Ratio goes with Fc1ccc(C(OCC[C@H]2C[C@H]3CC[C@@H](C2)N3CCCc2ccccc2)c2ccc(F)cc2)cc1 ? 4

For the molecule shown here, CN1C2CCC1CC(CCOC(c1ccc(F)cc1)c1ccc(F)cc1)C2 (configuration not stated) , give the reported Ratio. 79

State the recorded Ratio for this entry: CN1C2CCC1CC(CCNC(c1ccccc1)c1ccccc1)C2 (configuration not stated) 11

====

# Species on record: Rattus norvegicus
# test-method-notes: Inhibition of Dopamine reuptake from rat caudate using [3H]DA
# Type: functional
endpoint-name: pKi
Keep it numeric: pKi is minus log10 of the concentration in mol/L.

Past entries and their recorded results:
CN1[C@@H]2CC[C@H]1C[C@@H](CC(=O)NC(c1ccccc1)c1ccccc1)C2 : 5.10
CN1[C@@H]2CC[C@H]1C[C@@H](CCOC(c1ccccc1)c1ccccc1)C2 : 6.59
Fc1ccc(C(OCCN2CCN(CCCc3ccccc3)CC2)c2ccc(F)cc2)cc1 [VANOXERINE] : 8.37
c1ccc(CCCN2[C@@H]3CC[C@H]2C[C@@H](CCOC(c2ccccc2)c2ccccc2)C3)cc1 : 6.92

Let us examine a further case.
pKi for CN1C2CCC1CC(=CCOC(c1ccc(F)cc1)c1ccc(F)cc1)C2 ? 7.46

====

The molecules listed here are annotated with their Ki.
# tested-on: Muscarinic acetylcholine receptor M1 (Rattus norvegicus, UniProt P08482)
# Sequence (P08482 whole entry): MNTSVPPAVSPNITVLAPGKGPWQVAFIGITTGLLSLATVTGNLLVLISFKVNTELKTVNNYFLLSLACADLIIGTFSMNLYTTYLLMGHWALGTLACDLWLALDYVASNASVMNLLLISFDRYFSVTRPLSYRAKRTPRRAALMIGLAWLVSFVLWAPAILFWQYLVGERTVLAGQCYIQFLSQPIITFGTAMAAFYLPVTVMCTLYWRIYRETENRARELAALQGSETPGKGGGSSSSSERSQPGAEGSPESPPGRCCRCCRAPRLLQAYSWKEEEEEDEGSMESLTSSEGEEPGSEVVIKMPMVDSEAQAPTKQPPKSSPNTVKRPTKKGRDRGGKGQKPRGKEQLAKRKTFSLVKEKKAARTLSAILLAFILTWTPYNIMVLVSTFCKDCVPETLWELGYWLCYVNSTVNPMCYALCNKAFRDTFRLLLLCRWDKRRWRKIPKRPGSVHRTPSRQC
Numeric only. Scale: nM

Some solved entries appear below for comparison.
CN1C2CCC1CC(=CCOC(c1ccccc1)c1ccccc1)C2 : 94
Fc1ccc(C(OCC[C@H]2C[C@H]3CC[C@@H](C2)N3CCCc2ccccc2)c2ccc(F)cc2)cc1 : 170
CN1C2CCC1CC(=CC(=O)NC(c1ccc(F)cc1)c1ccc(F)cc1)C2 : 2500
CN1C2CCC1CC(=CCOC(c1ccc(F)cc1)c1ccc(F)cc1)C2 : 200
CN1[C@@H]2CC[C@H]1C[C@@H](CCOC(c1ccccc1)c1ccccc1)C2 : 56

// Ki lookup, key: CN1C2CCC1CC(CCNC(c1ccccc1)c1ccccc1)C2 (configuration not stated) 340

Quick one: Ki of CN1[C@@H]2CC[C@H]1C[C@@H](CC(=O)NC(c1ccccc1)c1ccccc1)C2 ? 1200

Suppose we examine the molecule CN1C2CCC1CC(CCOC(c1ccc(F)cc1)c1ccc(F)cc1)C2 (configuration not stated) ; what Ki value has been reported? 130

Give the measured Ki of CN1[C@@H]2CC[C@H]1C[C@@H](CCNC(c1ccc(F)cc1)c1ccc(F)cc1)C2 . 630

For the molecule c1ccc(CCCN2[C@@H]3CC[C@H]2C[C@@H](CCOC(c2ccccc2)c2ccccc2)C3)cc1 , what Ki is on record? 78

What does the record list as Ki for CN1C2CCC1CC(=CC(=O)NC(c1ccccc1)c1ccccc1)C2 ? 1700

Looking for the measured Ki of CN1C2CCC1CC(CC(=O)NC(c1ccc(F)cc1)c1ccc(F)cc1)C2 (configuration not stated) , can you help? 1200
